Measured values drawn from PubChem BioAssay AID504720 for this set.

I'd appreciate it if you could supply activation values for the items below.
Target: Endoribonuclease toxin MazF (Escherichia coli (strain K12))
Test: activators of E. coli MazEF toxin-antitoxin RNase, primary screen, biochemical, fluorescence, uHTS (AID 504720)
Conditions: FAM/BHQ RNA-DNA oligo cleavage fluorescence, 5 h, at 20 µM, active compounds read high
About 1,100 (0.31%) of roughly 350,000 compounds were called active. What follows is part of a selection rich in actives, with near analogues and random picks from the rest.
Answers are plain numbers, in %.

INSERT INTO assay_data (compound, observed_result) VALUES
  ('COc1ccc(CN(C)C(=S)Nc2ccc(Cl)cc2Cl)cc1', 7.07),
  ('COc1ccc(CCn2c(O)c(C=NC3CC3)c(=O)[nH]c2=O)cc1OC', 0.91),
  ('CN(C)CCNC(=O)C(C(=O)c1ccccc1)n1ccccc1=O (stereo unspecified)', 5.66);

Your task in this section: give activation for each listed record.
1. CCOCCOC(=O)C1=C(C)N(C)C(=O)NC1c1ccccc1F (stereo unspecified)
2. CCOc1ccc(C(C(=O)NCCOC)N(CCOC)C(=O)CCC(=O)Nc2ccccn2)cc1 (stereo unspecified)
3. CN1OC[C@@H]2CN[C@H](c3ccc(-c4ccccc4)cc3)C[C@@H]21
4. CCOC(=O)N1CCN(C(=O)CN(C2CCCCC2)S(C)(=O)=O)CC1
5. Cc1scc(C(=O)NNC(=S)NCC(C)C)c1C

Solution:
1. 7.27
2. -1.66
3. 8.87
4. -5
5. 5.32

Your task in this section: give activation for each listed record.
1. COc1ccc(N=Cc2c(O)n(C)c(=O)[nH]c2=O)cc1
2. CCOc1ccc(/C=C/C(=O)OCC(=O)c2ccccc2OC)cc1OC
3. COc1ccc(Cn2c(O)c(/C=C3/C=CC=N3)c(=O)[nH]c2=O)cc1

Solution:
1. -3.16
2. -8.54
3. 79.2

* * *

Molecular target: Endoribonuclease toxin MazF (Escherichia coli (strain K12))
Assay: activators of E. coli MazEF toxin-antitoxin RNase, primary screen, biochemical, fluorescence, uHTS (AID 504720)
Conditions: FAM/BHQ RNA-DNA oligo cleavage fluorescence, 5 h, at 20 µM, active compounds read high
The whole screen tested about 350,000 compounds, of which about 1,100 (0.31%) were called active. Only a selection was taken, and actives are over-represented in it overall.
outcome_measure: activation (%)
Answers are plain numbers, in %.

These solved cases illustrate the format of a correct answer.
INSERT INTO measurements (molecule, target_or_test_system, outcome_measure, result_unit, observed_result) VALUES
  ('CC(=O)c1ccc(NC(=O)c2ccc3c(Cl)c4c(nc3c2)CCCC4)cc1', 'Endoribonuclease toxin MazF (Escherichia coli (strain K12))', 'activation', '%', 61.1),
  ('Cc1ccc(Sc2ccncc2S(N)(=O)=O)cc1', 'Endoribonuclease toxin MazF (Escherichia coli (strain K12))', 'activation', '%', 4.01),
  ('CCOc1ccc(N2C(=O)Nc3ccccc3C2(O)C(=O)NCc2ccco2)cc1 (stereo unspecified)', 'Endoribonuclease toxin MazF (Escherichia coli (strain K12))', 'activation', '%', -28.4),
  ('COC(=O)Cc1csc(/N=C/c2c(O)n(-c3cccc(C(F)(F)F)c3)c(=O)c3ccccc23)n1', 'Endoribonuclease toxin MazF (Escherichia coli (strain K12))', 'activation', '%', -24.2),
  ('Cc1ccc(N=Cc2c(O)n(-c3nccs3)c(=O)c3ccccc23)c(C)c1', 'Endoribonuclease toxin MazF (Escherichia coli (strain K12))', 'activation', '%', 1250);

Your task in this section: give activation for each listed record.
1. CC[C@]1(C(=O)OC)[C@H]2C(=O)N(C)C(=O)[C@H]2[C@H]2CN(C)C(=NCc3ccccc3)N21
2. COCCn1c(=NC(=O)c2ccccc2[N+](=O)[O-])sc2cc(S(C)(=O)=O)ccc21
3. COCCNC(=O)C(c1ccc(O)cc1)N(C(=O)CCC(=O)Nc1nccs1)c1ccc(C)cc1 (stereo unspecified)
4. Cc1ccc(CNC(=O)CSc2nnc3c(n2)[nH]c2ccc(F)cc23)cc1

Solution:
1: 74.5; 2: 15.4; 3: 8.66; 4: 18.4

Your task in this section: give activation for each listed record.
1. Cc1cccc(N=Nc2c(O)[nH]c3ccc(F)cc23)c1
2. c1ccc(-c2cn3c(n2)CCc2ccc4cccnc4c2-3)cc1
3. Cc1nn2c3cc(N4CCOCC4)ccc3nc2c2ccccc12

Solution:
1: 946; 2: 4.41; 3: 31.7

Your task in this section: give activation for each listed record.
1. CN=C(c1ccccc1)c1c(C)cccc1C
2. COc1cccc(NC(=O)c2ccc3c(SCC(=O)O)c4c(nc3c2)CCCC4)c1
3. CCCCN(CC(=O)Nc1cccc(S(=O)(=O)N2CCCC2)c1)Cc1nc2ccccc2c(=O)[nH]1
4. O=C1N[C@H](Cc2c[nH]c3ccccc23)COC(=O)[C@H](Cc2ccc(F)cc2)C/C=C\C[C@H]1CC(=O)N(CCO)Cc1ccccc1
5. Cc1cccc(-n2c(O)c(C=Nc3ccccc3N)c(=O)[nH]c2=O)c1
6. Cc1ccc2cccc([N+](=O)[O-])c2n1
7. CCC(=O)CC(c1ccc([N+](=O)[O-])cc1)c1c(O)c2ccccc2oc1=O (stereo unspecified)
8. CN(C)Cc1c(O)ccc2occ(C(O)c3ccccc3)c12 (stereo unspecified)

Solution:
[0.32, 0.29, -2.27, -14.8, 10.4, 4.29, 1, 8.71]

Problem: Tell me the measured activation of COc1cc(C(c2c(O)c3ccccc3oc2=O)c2c(C)n(C)n(-c3ccccc3)c2=O)ccc1O (stereo unspecified) , please.
Solution: 0.237

* * *

Molecular target: Endoribonuclease toxin MazF (Escherichia coli (strain K12))
Experiment: activators of E. coli MazEF toxin-antitoxin RNase, primary screen, biochemical, fluorescence, uHTS (AID 504720)
Details: FAM/BHQ RNA-DNA oligo cleavage fluorescence, 5 h, at 20 µM, active compounds read high
Screen size: about 350,000 compounds; about 1,100 (0.31%) were called active. The sample as a whole holds a higher share of actives than the screen did.
outcome_measure: activation (%)
Numbers only, in %.

These solved cases illustrate the format of a correct answer.
INSERT INTO results (molecule, target_or_test_system, result_unit, observed_result) VALUES
  ('CCn1c(/C=N/NC(=O)c2ccc(OC)cc2)nc2ccccc21', 'Endoribonuclease toxin MazF (Escherichia coli (strain K12))', '%', -0.18),
  ('CC(=O)Nc1ccc(C(=O)N(C2=NC(C)CS2)c2ccc(Cl)cc2)cc1 (stereo not given)', 'Endoribonuclease toxin MazF (Escherichia coli (strain K12))', '%', 2.92),
  ('O=C(Nc1ncc2c(n1)-c1ccccc1OC2)c1ccc(Cl)cc1', 'Endoribonuclease toxin MazF (Escherichia coli (strain K12))', '%', 3.08);

Your task in this section: give activation for each listed record.
1. C[C@@H](NC(=O)OC(C)(C)C)c1nnc(S(=O)(=O)Cc2ccccc2)o1
2. CC(C)(C)N(Cc1ccccc1)C(=O)COC(=O)CCc1c[nH]c2ccccc12
3. O=C(COC(=O)c1ccccc1C(=O)N1CCN(c2ccccc2)CC1)NCc1ccccc1
4. C/C(=N\OC(=O)c1ccccc1)c1c(C)nc2cc(C)ccn12
5. COc1ccc(NC(=O)CSc2nnc(-c3ccccc3F)n2C2CC2)cc1S(N)(=O)=O
6. COc1cccc(/C=N/NC(=O)c2[nH]nc3c2CCc2ccccc2-3)c1O

Solution:
1: 8.87; 2: 5.36; 3: 67.3; 4: 4.56; 5: 3.2; 6: 160

Problem: Tell me the measured activation of COc1cc(C(=O)N2CCN(C)CC2)cc(OC)c1OC , please.
Solution: 4.16

* * *

Target: Endoribonuclease toxin MazF (Escherichia coli (strain K12)) (UniProt P0AE70)
Sequence (P0AE70 whole entry, looked up): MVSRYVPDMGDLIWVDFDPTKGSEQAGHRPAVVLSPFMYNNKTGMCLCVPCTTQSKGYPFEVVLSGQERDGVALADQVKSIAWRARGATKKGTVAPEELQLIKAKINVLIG
Experiment: activators of E. coli MazEF toxin-antitoxin RNase, primary screen, biochemical, fluorescence, uHTS (AID 504720)
Conditions: FAM/BHQ RNA-DNA oligo cleavage fluorescence, 5 h, at 20 µM
The whole screen tested about 350,000 compounds, of which about 1,100 (0.31%) were called active. No stated cut-off is given here; in the data, active means activation above about 50%; inactive means the rest. This is one part of a sample in which actives are shown more often than they occur.
Write down one outcome, taken from yes = active, no = inactive

Would you please look over these solved cases?
INSERT INTO measurements (compound, class_name) VALUES
  ('CCn1c(/C=C/c2ccc([N+](=O)[O-])o2)nc2ccccc2c1=O', 'yes'),
  ('CN(C(=O)CN1C(=O)NC(C)(CCc2ccccc2)C1=O)c1ccccc1 (stereo unspecified)', 'no'),
  ('O=C(NCc1cccc(Cl)c1)C1=CC=CN2CCS(=O)(=O)N=C12', 'no');

Problem: Kindly provide the recorded test outcome for the following compound: CCOCCCNC(=O)C(NC(=O)c1ccccc1O)c1ccccc1 (stereo unspecified)
Solution: no

Problem: Try CCCCCCNCCn1cnc2c(N)ncnc21 next.
Solution: no

Problem: Try C=CCn1c(-c2ccc(Cl)cc2)ccc(C#N)c1=O next.
Solution: no

Problem: Try O=C(NCCCNC(=O)NC1CCCCC1)NC1CCCCC1 next.
Solution: no

Problem: Try Cc1ccc(CN2C(=O)N/C(=C/c3cc(C)n(-c4ccccn4)c3C)C2=O)cc1 next.
Solution: no

Problem: Try CCOC(=O)CSc1nc(C)cc2c1C(=O)OC2 next.
Solution: no

Problem: Try C/C(CC(=O)NCc1ccc(Cl)cc1)=N\NC(=O)COc1ccc(C)cc1Br next.
Solution: no

Problem: Try O=c1c2ccccc2nc(/C=C/c2ccco2)n1-c1ccccc1O next.
Solution: no
